Test system: Bacteroides caccae
Test: growth AUC relative to DMSO control (median of replicates) (fraction); higher = more growth (less inhibition), active = hit call of the paper
Conditions: 20 µM; 24 h
observation.type: growth AUC

compound: COC(=O)c1ccc(C)cc1C1=NC(C)(C(C)C)C(=O)N1 (racemic)
target.or.system: Bacteroides caccae
growth AUC: 1.01 (inactive)
--
compound: O=[N+]([O-])c1ccc(Oc2c(Cl)cc(Cl)cc2Cl)cc1
target.or.system: Bacteroides caccae
growth AUC: 1.02 (inactive)
--
compound: CCOC(=O)C(C)N(C(=O)c1ccccc1)c1ccc(Cl)c(Cl)c1 (configuration not stated)
target.or.system: Bacteroides caccae
growth AUC: 0.975 (inactive)
--
compound: COC(=O)C(C)Oc1ccc(Cl)cc1C (configuration not stated)
target.or.system: Bacteroides caccae
growth AUC: 0.999 (inactive)
--
compound: COC(=O)c1ccccc1S(=O)(=O)NC(=O)Nc1nc(OC(F)F)cc(OC(F)F)n1
target.or.system: Bacteroides caccae
growth AUC: 1 (inactive)

Endpoint output: growth AUC of `CCSC(=O)N(CC)CC` . Value?
0.998 (inactive)

Entry under review: `Cc1cccc(C)c1N(CC(=O)O)C(=O)CS(=O)(=O)[O-].[Na+]` . Reported growth AUC?
1.01 (inactive)
